Kd overview
# tested-system: VtrA–VtrC periplasmic domain complex (heterodimer) (Vibrio parahaemolyticus, UniProt Q87GI3+Q87GI4, Q87GI3:Y151F)
# assay-text: biochemical
Numbers only here, please. The scale is µM.

molecule	property	data-value
C[C@H](CCC(=O)O)[C@H]1CC[C@H]2[C@@H]3[C@H](O)C[C@@H]4C[C@H](O)CC[C@]4(C)[C@H]3CC[C@]12C [CDC, chenodeoxycholate]	Kd	1.17

Prompt: Entry C[C@H](CCC(=O)NCCS(=O)(=O)O)[C@H]1CC[C@H]2[C@@H]3CC[C@@H]4C[C@H](O)CC[C@]4(C)[C@H]3C[C@H](O)[C@]12C [TDC, taurodeoxycholate] : reported Kd = ?
Completion: 0.873

Entry source: paper PMC10140157
